# MIC per record follows
Test system: Staphylococcus aureus
assayComment: In vitro antibacterial activity against Staphylococcus aureus UBMS 90-1 Tet M
Type: functional
measurementName: MIC

INSERT INTO results (molecule, assayedsystem, endpointvalue) VALUES
  ('CN(C)c1cc(NC(=O)CNC2CCCCCCC2)c(O)c2c1CC1CC3[C@H](N(C)C)C(=O)C(C(N)=O)=C(O)[C@@]3(O)C(=O)C1=C2O (stereo partly drawn)', 'Staphylococcus aureus', '1 µg/mL'),
  ('CN(C)c1cc(NC(=O)Cn2ccnc2)c(O)c2c1CC1CC3[C@H](N(C)C)C(=O)C(C(N)=O)=C(O)[C@@]3(O)C(=O)C1=C2O (stereo partly drawn)', 'Staphylococcus aureus', '32 µg/mL'),
  ('CN(C)c1ccc(O)c2c1C[C@H]1C[C@H]3[C@H](N(C)C)C(O)=C(C(N)=O)C(=O)[C@@]3(O)C(O)=C1C2=O [MINOCYCLINE]', 'Staphylococcus aureus', '8 µg/mL');

* * *

System: Escherichia coli
assayComment: In vitro antibacterial activity against Escherichia coli J3272 Tet D
Format: functional
Doc: threshold 2 µg/mL (exclusive). Items with MIC beneath it return condition met; others return condition not met.

INSERT INTO results (compound, qualitativelabel) VALUES
  ('CCCCCCCCCCCNCC(=O)Nc1cc(N(C)C)c2c(c1O)C(=O)C1=C(O)[C@]3(O)C(O)=C(C(N)=O)C(=O)[C@@H](N(C)C)C3CC1C2 (some centres undefined)', 'condition not met'),
  ('CN(C)c1cc(NC(=O)CNCc2ccccc2)c(O)c2c1CC1CC3[C@H](N(C)C)C(=O)C(C(N)=O)=C(O)[C@@]3(O)C(=O)C1=C2O (some centres undefined)', 'condition met'),
  ('CN(C)c1cc(NC(=O)CN2CCCC2)c(O)c2c1CC1CC3[C@H](N(C)C)C(=O)C(C(N)=O)=C(O)[C@@]3(O)C(=O)C1=C2O (some centres undefined)', 'condition met'),
  ('CN(C)[C@@H]1C(O)=C(C(N)=O)C(=O)[C@@]2(O)C(O)=C3C(=O)c4c(O)cccc4[C@@](C)(O)[C@H]3C[C@@H]12 [TETRACYCLINE]', 'condition not met'),
  ('CN(C)c1cc(NC(=O)CN2CCC2)c(O)c2c1CC1CC3[C@H](N(C)C)C(=O)C(C(N)=O)=C(O)[C@@]3(O)C(=O)C1=C2O (some centres undefined)', 'condition met'),
  ('CN(C)c1cc(NC(=O)CN2CCOCC2)c(O)c2c1CC1CC3[C@H](N(C)C)C(=O)C(C(N)=O)=C(O)[C@@]3(O)C(=O)C1=C2O (some centres undefined)', 'condition not met'),
  ('CN(C)CC(=O)Nc1cc(N(C)C)c2c(c1O)C(=O)C1=C(O)[C@]3(O)C(O)=C(C(N)=O)C(=O)[C@@H](N(C)C)C3CC1C2 (some centres undefined)', 'condition met'),
  ('CN(C)c1cc(NC(=O)Cn2ccnc2)c(O)c2c1CC1CC3[C@H](N(C)C)C(=O)C(C(N)=O)=C(O)[C@@]3(O)C(=O)C1=C2O (some centres undefined)', 'condition not met');

* * *

System: Escherichia coli
assayComment: In vitro antibacterial activity against Escherichia coli UBMS 90-5 sensitive
Format: functional
measurementName: MIC

INSERT INTO assay_data (compound, measurementname, endpointvalue) VALUES
  ('CN(C)c1cc(NC(=O)CN2CCSCC2)c(O)c2c1CC1CC3[C@H](N(C)C)C(=O)C(C(N)=O)=C(O)[C@@]3(O)C(=O)C1=C2O (some centres undefined)', 'MIC', '> 32 µg/mL'),
  ('CN(C)c1cc(NC(=O)CN2CCOCC2)c(O)c2c1CC1CC3[C@H](N(C)C)C(=O)C(C(N)=O)=C(O)[C@@]3(O)C(=O)C1=C2O (some centres undefined)', 'MIC', '> 32 µg/mL'),
  ('CCCNCC(=O)Nc1cc(N(C)C)c2c(c1O)C(=O)C1=C(O)[C@]3(O)C(O)=C(C(N)=O)C(=O)[C@@H](N(C)C)C3CC1C2 (some centres undefined)', 'MIC', '0.5 µg/mL'),
  ('CN(C)c1cc(NC(=O)Cn2ccnc2)c(O)c2c1CC1CC3[C@H](N(C)C)C(=O)C(C(N)=O)=C(O)[C@@]3(O)C(=O)C1=C2O (some centres undefined)', 'MIC', '> 32 µg/mL');
